assayed target: Nuclear factor erythroid 2-related factor 2 (Mus musculus) (UniProt Q60795)
Sequence (Q60795 whole entry): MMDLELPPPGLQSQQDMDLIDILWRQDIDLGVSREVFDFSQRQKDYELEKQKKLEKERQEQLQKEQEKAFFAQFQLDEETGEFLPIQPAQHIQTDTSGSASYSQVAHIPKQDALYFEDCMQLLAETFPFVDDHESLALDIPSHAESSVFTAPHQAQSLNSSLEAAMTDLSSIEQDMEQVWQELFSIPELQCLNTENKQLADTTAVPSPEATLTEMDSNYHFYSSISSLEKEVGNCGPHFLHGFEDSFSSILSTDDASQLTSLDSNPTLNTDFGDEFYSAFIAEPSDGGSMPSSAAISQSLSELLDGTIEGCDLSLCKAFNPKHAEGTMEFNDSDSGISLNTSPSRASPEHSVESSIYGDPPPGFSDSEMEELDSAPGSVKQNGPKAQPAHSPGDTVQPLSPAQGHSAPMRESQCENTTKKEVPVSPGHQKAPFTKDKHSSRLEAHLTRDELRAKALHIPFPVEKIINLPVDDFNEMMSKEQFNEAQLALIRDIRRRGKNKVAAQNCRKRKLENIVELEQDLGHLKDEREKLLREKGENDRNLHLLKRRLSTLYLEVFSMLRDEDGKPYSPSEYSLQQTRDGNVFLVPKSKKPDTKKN
procedure summary: Activation of Nrf2 in mouse Hepa1c1c7 cells assessed as increase in NQO1 activity at 7.5 uM
Type: cell-based
measurement conditions: filed as activator
readout name: Activity
Simply state the number, no unit and no words.

Known Activity results, listed for orientation:
- structure: "NS(=O)(=O)c1ccc(-n2c(SCC(=O)Nc3ccccc3F)nc3c(I)cc(I)cc3c2=O)cc1"
  Activity: 1.23
- structure: "NS(=O)(=O)c1ccc(-n2c(SCC(=O)Nc3cccc(F)c3)nc3c(I)cc(I)cc3c2=O)cc1"
  Activity: 1.21
- structure: "NS(=O)(=O)c1ccc(-n2c(SCC(=O)Nc3c(Cl)cc(Cl)cc3Cl)nc3c(I)cc(I)cc3c2=O)cc1"
  Activity: 1
- structure: "NS(=O)(=O)c1ccc(-n2c(SCC(=O)Nc3ccc(Br)cc3Br)nc3c(I)cc(I)cc3c2=O)cc1"
  Activity: 1.08

Requested read-out: Activity. Entry: `NS(=O)(=O)c1ccc(-n2c(SCC(=O)Nc3cccnc3)nc3c(I)cc(I)cc3c2=O)cc1`
1.07
